system: NCI/ADR-RES ovarian; assay: NCI tumour cell line growth inhibition, 48 h
Reported Property: TGI

>>> result("Cc1c(-c2ccnc(N)n2)c2c(n1-c1ccccc1)C(=O)c1ccccc1C2=O")
"66.8 µM"

According to the records, this molecule "COc1ccc(OC)c(/C=C/C(=O)c2ccc(SC)cc2)c1" displays TGI of 11.8 µM

According to the records, this molecule "O=C(O)CNCc1c2ccccc2nc2ccccc12" displays TGI of > 100 µM

According to the records, this molecule CC1C/C(=C\c2ccc(O)c(O)c2)C(=O)/C(=C/c2ccc(O)c(O)c2)C1 (stereo not given) displays TGI of 57.7 µM

According to the records, this molecule "O=S1(=O)OCCOS(=O)(=O)C1S(=O)(=O)c1cccc2ccccc12" displays TGI of > 100 µM

* * *

system: MCF7 breast; assay: NCI tumour cell line growth inhibition, 48 h
TGI values for the compounds below.

These solved cases illustrate the format of a correct answer.
>>> result("COc1ccc(C2=C(N)c3cc(OC)ccc3C2=O)cc1")
"> 100 µM"
>>> result("CN1C(=O)[C@](C)(Cc2ccc(F)cc2)N(C(=O)OC(C)(C)C)[C@@H]1C(C)(C)C")
"59.3 µM"
>>> result("CC1[C@@H]2C[C@@H]3O[C@@]34[C@H]3CCC5Cc6nc7c(nc6C[C@@]5(C)C3(O)CC(=O)[C@@]24CO[C@]12OC(C)(C)CC2O)CC1CC[C@@H]2C3=C[C@H]4O[C@@]5(O[C@@](C)(CO)C[C@@H]5O)C(C)[C@@]4(O)[C@]3(C)[C@@H](O)CC2[C@]1(C)C7 (stereo partly drawn)")
"> 3.52 µM"
>>> result("COc1cc(C2CC(c3cc(Cl)c(C)cc3O)=NN2c2ccc(S(N)(=O)=O)cc2)cc(OC)c1OC (stereo not drawn)")
"10.3 µM"

According to the records, this compound Clc1ccc(C2=NNC(c3cccc(Cl)c3)C2)cc1 (stereo not drawn) displays TGI of > 100 µM

According to the records, this compound "Cc1cccc(Cc2cnc(NC(=O)/C=C/c3ccco3)s2)c1" displays TGI of > 100 µM

According to the records, this compound "C[C@@H]1CC[C@H]2C(CN(C)CC3=C(C(F)(F)F)O[C@@H]4O[C@@]5(C)CC[C@H]6[C@H](C)CC[C@@H]3[C@@]46OO5)=C(C(F)(F)F)O[C@@H]3O[C@@]4(C)CC[C@@H]1[C@]32OO4" displays TGI of > 100 µM

According to the records, this compound "C/C(=C\COc1ccc2ccc(=O)oc2c1)CCC(=O)C(C)(C)O" displays TGI of 40.6 µM

* * *

test system: OVCAR-4 ovarian; assay: NCI tumour cell line growth inhibition, 48 h
Reported Property: TGI

These solved cases illustrate the format of a correct answer.
>>> result("c1ccc2c(c1)[C@@H]1O[C@@H]1[C@@]13O[C@@]21[C@H]1O[C@H]1c1ccccc13")
"26.8 µM"
>>> result("CC(=O)OC1CC2C(C)(C)C(=O)C=C[C@]2(C)C2CCC3(C)C(=CCC3[C@H](CO)C[C@H](O)C(=O)C(C)(C)O)[C@]12C (some centres undefined)")
"> 100 µM"
>>> result("CCC[CH2][Sn]1([CH2]CCC)[O]N=Cc2ccccc2[O]1")
"3.51 µM"

--- query ---
According to the records, this molecule "Cc1cc(N)c2cc(NC(=O)CCCCCCCCC(=O)Nc3ccc4nc(C)cc(N)c4c3)ccc2n1" displays TGI of > 100 µM

* * *

system: HT29 colon; test: NCI tumour cell line growth inhibition, 48 h
TGI values for the compounds below.
Your answer is read as µM, so omit the unit and give the number.

>>> result_number("CC(C)(CO)Nc1c(O)c2c(c(O)c1Cl)C(=O)C=CC2=O")
3.4
>>> result_number("COc1cc(C2CC(c3cc(Cl)c(C)cc3O)=NN2c2ccc(S(N)(=O)=O)cc2)cc(OC)c1OC (configuration not stated)")
4.28

--- query ---
According to the records, this compound CC(C(=O)C(C)O[Si](c1ccccc1)(c1ccccc1)C(C)(C)C)=P(c1ccccc1)(c1ccccc1)c1ccccc1 (configuration not stated) displays TGI of 11.5

* * *

GI50 values for the compounds below.
tested on: DU-145 prostate; test: NCI tumour cell line growth inhibition, 48 h
*1 amine or outer side, *2 acyl side, *3 side chain or, on linkers, in order; H or OH if unused. Where a SMILES comes first, the peptide text is derived from it. [ ]: non-standard residue; d: D form. The star is where a group is joined. X12 = NCCCCC(N[*:1])C(=O)CN1CCCC1C(=O)[*:2]; Pentadecanoyl = CCCCCCCCCCCCCCC(=O)*

These solved cases illustrate the format of a correct answer.
>>> result("N#CSc1cc(-c2nc3ccccc3o2)ccc1N")
"> 67.7 µM"
>>> result("CCCCCCCCCCCCCCC(=O)NC(CCCCN)C(=O)CN1CCCC1C(=O)NCC(=O)NC(Cc1ccccc1)C(=O)N1CCCC1C(=O)NC(CO)C(=O)NC(Cc1ccc(O)cc1)C(=O)NC(CCCCN)C(=O)NC(CC(C)C)C(=O)NC(CCCN=C(N)N)C(=O)N1CCCC1C(=O)NCC(N)=O (stereo unspecified) (Pentadecanoyl-[X12]GFPSYKLRPG-NH2; configuration not given here)")
"24.1 µM"
>>> result("COc1ccc2c(c1)/C(=N/OC(C)=O)c1c-2c(Nc2ccc(/C(C)=N/OC(C)=O)cc2)nc2ccccc12")
"43.2 µM"
>>> result("O=C(c1nc2ccccc2[nH]1)C1C(c2cccc([N+](=O)[O-])c2)C2CC3CCCCC3N2[C@@]12C(=O)Nc1cc(Cl)ccc12 (stereo partly specified)")
"1.55 µM"
>>> result("C[C@@H]1CC[C@H]2C(CN(C)CC3=C(C(F)(F)F)O[C@@H]4O[C@@]5(C)CC[C@H]6[C@H](C)CC[C@@H]3[C@@]46OO5)=C(C(F)(F)F)O[C@@H]3O[C@@]4(C)CC[C@@H]1[C@]32OO4")
"2.69 µM"

--- query ---
According to the records, this compound "CCn1c(-c2nonc2N)nc2c(C#CC(C)(C)O)ncc(OCC3CCNCC3)c21" displays GI50 of 8.15 µM

* * *

system: HL-60(TB) leukemia; assay: NCI tumour cell line growth inhibition, 48 h; in the data active = GI50 below about 0.43 µM; inactive = the rest
Select the correct class. Options are active, inactive and nothing else.

>>> class("Cn1cc(C2=C(c3cccc(Cl)c3)C(=O)NC2=O)c2ccccc21")
"inactive"
>>> class("COC(=O)[C@@H](C)C[C@H](Cc1ccccc1)NC(=O)c1csc([C@@H](C[C@H](C(C)C)N(C)C(=O)[C@@H](NC(=O)CN(C)C)C2CC2)OC(C)=O)n1")
"active"

Attention now shifts to the item below.
## Input Entry "Cc1cncc2cccc(S(=O)(=O)N3CCCNC[C@@H]3C)c12" : call = ?
## Output inactive

* * *

system: SF-268 CNS; test: NCI tumour cell line growth inhibition, 48 h
*1 amine or outer side, *2 acyl side, *3 side chain or, on linkers, in order; H or OH if unused. Where a SMILES comes first, the peptide text is derived from it. [ ]: non-standard residue; d: D form. The star is where a group is joined. X12 = NCCCCC(N[*:1])C(=O)CN1CCCC1C(=O)[*:2]; Pentadecanoyl = CCCCCCCCCCCCCCC(=O)*
Rule: Fulfilled for TGI not less than 10 µM, Not fulfilled for anything less.

Examples from the recorded data:
>>> class("Nc1ccc(Sc2ccc3c4c2cccc4c(=O)n2c4ccccc4nc32)cc1")
"Fulfilled"
>>> class("CCCCCCCCCCCCCCC(=O)NC(CCCCN)C(=O)CN1CCCC1C(=O)NCC(=O)NC(Cc1ccccc1)C(=O)N1CCCC1C(=O)NC(CO)C(=O)NC(Cc1ccc(O)cc1)C(=O)NC(CCCCN)C(=O)NC(CC(C)C)C(=O)NC(CCCN=C(N)N)C(=O)N1CCCC1C(=O)NCC(N)=O (configuration not stated) (Pentadecanoyl-[X12]GFPSYKLRPG-NH2; configuration not given here)")
"Fulfilled"
>>> class("NC(=S)c1cn(C2OC(CO)C(O)C2O)c2ncnc(N)c12 (configuration not stated)")
"Not fulfilled"
>>> class("O=C(O)CCC(NC(=O)/C(=C/c1ccccc1)NC(=O)c1ccccc1)C(=O)O (configuration not stated)")
"Fulfilled"
>>> class("O=C(N/N=C\\c1cc(Br)cc(Br)c1O)N/N=C/c1cc(Br)cc(Br)c1O")
"Fulfilled"
>>> class("CC1=NNC(N)=N/C1=C\\C(Sc1ccc(Cl)cc1)c1ccc(Cl)cc1Cl (configuration not stated)")
"Fulfilled"
>>> class("COc1nc2ncc([C@@H](O)[C@H](O)CO)nc2c(=O)[nH]1")
"Fulfilled"
>>> class("C/C(=N/OCCC(=O)O)C1CC1")
"Fulfilled"

Attention now shifts to the item below.
## Input Does "C[C@@H]1CC[C@H]2C(CN(C)CC3=C(C(F)(F)F)O[C@@H]4O[C@@]5(C)CC[C@H]6[C@H](C)CC[C@@H]3[C@@]46OO5)=C(C(F)(F)F)O[C@@H]3O[C@@]4(C)CC[C@@H]1[C@]32OO4" have a reported TGI of at least 10 µM?
## Output Fulfilled
